molecular target: PDGF-Ra (Homo sapiens); construct: host or cells: G-292 human osteosarcoma cells; assay: Inhibitory activity against PDGF-Ra phosphorylation by PDGF-AA stimulation using G292; format: cell-based; conditions: > means inhibition at indicated concentration not more than 50%, < and << not less than 50%; read-out: PDGF (E) IC50
I'd appreciate it if you marked entries y when IC50 is lower than 0.04 µM and n when it is not.

Please determine if `COc1cc2nccc(Oc3cc(C)c(NC(=S)NCCN(C)C)cc3C)c2cc1OC` is below 0.04 µM in terms of IC50.
n

Dear reviewer, please state whether `COc1cc2nccc(Oc3ccc(NC(=S)NC(=O)Cc4ccc5ccccc5c4)cc3Cl)c2cc1OC` has IC50 strictly beneath 0.04 µM.
n

Please state whether IC50 is below 0.04 µM for `COc1cc2nccc(Oc3cc(C)c(NC(=S)NCCN4CCCC4)cc3C)c2cc1OC`
n

---

List of IC50 values.
target: PDGF-Ra (Homo sapiens); construct: host or cells: G-292 human osteosarcoma cells; assay: Inhibitory activity against PDGF-Ra phosphorylation by PDGF-AA stimulation using G292; type: cell-based; details: Pharmacological Test Example 1; > means inhibition at indicated concentration not more than 50%, < and << not less than 50%; read-out: PDGF (E) IC50
Quick reminder: number only, in nM, skip the unit.

Answered cases to consult:
[
  {
    "Compound": "COc1cc2nccc(Oc3ccc(NC(=O)OCc4cccc(Cl)c4)c(C)c3C)c2cc1OC [Example 236]",
    "IC50 / nM": 4
  },
  {
    "Compound": "COc1cc2ncnc(Oc3ccc(NC(=O)OC(C)c4ccccc4Br)c(Cl)c3)c2cc1OC (stereo not shown) [Example 116]",
    "IC50 / nM": 31
  },
  {
    "Compound": "CCOc1ccccc1C(C)OC(=O)Nc1ccc(Oc2ccnc3cc(OC)c(OC)cc23)cc1 (stereo not shown) [Example 127]",
    "IC50 / nM": 16
  },
  {
    "Compound": "COc1cc2ncnc(Oc3ccc(NC(=O)OCCCSc4ccc(Cl)cc4C)cc3)c2cc1OC [Example 80]",
    "IC50 / nM": 12
  },
  {
    "Compound": "COc1cc2ncnc(Oc3ccc(NC(=O)OCCCSc4cc(C)ccc4C)cc3)c2cc1OC [Example 172]",
    "IC50 / nM": 17
  }
]

Short answer for COc1cccc(C(C)OC(=O)Nc2cc(C)c(Oc3ccnc4cc(OC)c(OC)cc34)cc2C)c1 (stereo not shown) [Example 54] : IC50 was 15

# compound COc1cc2nccc(Oc3ccc(NC(=O)OCCN(C)C)c(C)c3C)c2cc1OC [Example 189] ; its IC50 = 57

Record COc1cccc(OCCCOC(=O)Nc2ccc(Oc3ncnc4cc(OC)c(OC)cc34)cc2Cl)c1 [Example 51] . Reported IC50: 14

Query COc1cc2nccc(Oc3cc(C)c(NC(=O)Oc4c(C)cccc4C)cc3C)c2cc1OC [Example 270] yields IC50 of 65

Notebook: COc1cc2ncnc(Oc3ccc(NC(=O)OCCSc4cc(C)ccc4C)cc3)c2cc1OC [Example 168] , IC50 read as 15

Per the records, this compound ( COc1cc2nccc(Oc3ccc(NC(=O)OC(C)c4ccccc4Cl)c(C)c3C)c2cc1OC (stereo not shown) [Example 14] ) has IC50 equal to 12

Consider COc1cc2nccc(Oc3cc(C)c(NC(=O)OCCC4CCCCC4)cc3C)c2cc1OC [Example 354] . Its measured IC50 is 15

Looking up COc1cc2nccc(Oc3ccc(NC(=O)OCCCOc4ccccc4OC)c(C)c3C)c2cc1OC [Example 158] , I found its IC50 recorded as 12

---

target: c-kit (Homo sapiens); construct: MO7e (human megakaryocytic leukemia cell line) which had been arrested for 20 hr; endogenous in cells; host or cells: MO7e human megakaryocytic leukemia cell line; assay: Inhibitory activity against c-kit autophosphorylation (MO7e cells, h-SCF); type: cell-based; conditions: MO7e cells, h-SCF stimulation; read-out: c-kit IC50
Catalogue of molecules with associated pIC50
The scale used: pIC50 is minus the common logarithm of the concentration in molar units.

// worked examples, pIC50 included
[
  {
    "Smiles Input": "COc1ccc(C(=O)NC(=S)Nc2ccc(Oc3ccnc4cc(OC)c(OC)cc34)c(F)c2)cc1OC",
    "Target": "c-kit (Homo sapiens)",
    "Quantitative Readout": 6.41
  },
  {
    "Smiles Input": "COc1cc2nccc(Oc3ccc(NC(=S)NC(=O)c4ccc5c(c4)OCO5)cc3)c2cc1OC",
    "Target": "c-kit (Homo sapiens)",
    "Quantitative Readout": 6.37
  },
  {
    "Smiles Input": "COc1cc2nccc(Oc3ccc(NCCCOc4ccccc4Cl)c(C)c3C)c2cc1OC",
    "Target": "c-kit (Homo sapiens)",
    "Quantitative Readout": 6.19
  },
  {
    "Smiles Input": "COc1cc2nccc(Oc3ccc(NC(=S)NC(=O)CCC4CCCC4)cc3F)c2cc1OC",
    "Target": "c-kit (Homo sapiens)",
    "Quantitative Readout": 6.90
  },
  {
    "Smiles Input": "COc1cc2nccc(Oc3ccc(SCCOc4ccc(C)c(C)c4)cc3)c2cc1OC",
    "Target": "c-kit (Homo sapiens)",
    "Quantitative Readout": 6.76
  }
]

molecule `COc1cc2nccc(Oc3ccc(NC(=S)NC(=O)c4ccccc4I)c(F)c3)c2cc1OC` , pIC50 observed: 6.12

// pIC50 value for `COc1cc2nccc(Oc3ccc(NC(=S)NC(=O)c4ccc(F)cc4)cc3F)c2cc1OC` : 6.27

Short answer for `COc1cc2nccc(Oc3ccc(NC(=S)NC(=O)c4ccc(C)cc4)cc3Cl)c2cc1OC` : pIC50 was 6.08

---

biological target: c-kit (Homo sapiens, UniProt P10721); construct: MO7e (human megakaryocytic leukemia cell line) which had been arrested for 20 hr; endogenous in cells; host or cells: MO7e human megakaryocytic leukemia cell line; assay: Inhibitory activity against c-kit autophosphorylation (MO7e cells, h-SCF); format: cell-based; conditions: MO7e cells, h-SCF 50 ng/ml; read-out: c-kit IC50
Sequence (P10721 26-976): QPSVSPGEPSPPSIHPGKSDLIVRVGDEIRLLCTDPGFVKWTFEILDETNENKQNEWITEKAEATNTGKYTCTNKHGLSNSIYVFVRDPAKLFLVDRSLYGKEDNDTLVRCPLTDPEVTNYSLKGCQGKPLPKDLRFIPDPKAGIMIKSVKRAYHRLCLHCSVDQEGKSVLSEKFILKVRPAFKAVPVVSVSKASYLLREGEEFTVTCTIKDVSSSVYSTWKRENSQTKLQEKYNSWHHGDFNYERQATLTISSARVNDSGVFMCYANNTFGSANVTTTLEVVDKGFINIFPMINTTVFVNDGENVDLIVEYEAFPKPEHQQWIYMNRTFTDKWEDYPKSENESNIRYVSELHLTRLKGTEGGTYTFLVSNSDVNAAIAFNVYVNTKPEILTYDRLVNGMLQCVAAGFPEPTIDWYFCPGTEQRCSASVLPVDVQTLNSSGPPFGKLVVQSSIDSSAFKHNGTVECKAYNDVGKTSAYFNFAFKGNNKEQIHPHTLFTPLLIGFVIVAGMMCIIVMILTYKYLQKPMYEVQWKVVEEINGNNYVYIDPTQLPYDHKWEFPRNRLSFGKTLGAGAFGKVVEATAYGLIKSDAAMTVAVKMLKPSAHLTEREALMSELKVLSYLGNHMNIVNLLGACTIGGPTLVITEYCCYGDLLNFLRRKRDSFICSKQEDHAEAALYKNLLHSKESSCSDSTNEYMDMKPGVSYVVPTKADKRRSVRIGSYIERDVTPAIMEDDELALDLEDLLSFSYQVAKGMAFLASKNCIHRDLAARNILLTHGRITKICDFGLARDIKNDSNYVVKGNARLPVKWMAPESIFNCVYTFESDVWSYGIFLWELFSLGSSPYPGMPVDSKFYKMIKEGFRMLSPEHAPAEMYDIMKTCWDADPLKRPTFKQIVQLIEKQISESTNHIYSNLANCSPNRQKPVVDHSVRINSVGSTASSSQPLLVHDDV
Rule: IC50 below 100 nM gives 1. Equal to or above 100 nM gives -1.

Completed entries (count: 2):
[
  {
    "Molecule": "COc1cc2nccc(Oc3ccc(NC(=O)OCc4cccc(Cl)c4)c(C)c3C)c2cc1OC [Example 236]",
    "Target": "c-kit (Homo sapiens, UniProt P10721)",
    "Label Value": 1
  },
  {
    "Molecule": "COc1cc2ncnc(Oc3ccc(NC(=O)OCc4ccc(C(C)(C)C)cc4)cc3)c2cc1OC [Example 60]",
    "Target": "c-kit (Homo sapiens, UniProt P10721)",
    "Label Value": -1
  }
]

Given the entry COc1cc2ncnc(Oc3ccc(NC(=O)OCC4CCC4)cc3)c2cc1OC [Example 388] , would its reported IC50 be below 100 nM?
1

Field: below-cutoff. Rule: recorded IC50 strictly less than 100 nM. Subject: COc1cccc(OCCCOC(=O)Nc2cc(C)c(Oc3ccnc4cc(OC)c(OC)cc34)cc2C)c1 [Example 163]
-1

Quick check: IC50 of COc1cc2ncnc(Oc3ccc(NC(=O)OCc4ccccc4)cc3)c2cc1OC [Example 220] under 100 nM?
1

Is it true that IC50 reported for COc1cc2ncnc(Oc3ccc(NC(=O)OCc4ccccc4Cl)cc3)c2cc1OC [Example 317] is less than 100 nM?
-1

Please let me know if COc1cc2ncnc(Oc3ccc(NC(=O)OCCCOc4ccc(F)cc4)c(C)c3C)c2cc1OC [Example 156] shows IC50 below 100 nM.
1

Is IC50 of COc1cc2ncnc(Oc3ccc(NC(=O)OC4CCCCC4)c(Cl)c3)c2cc1OC [Example 313] strictly below 100 nM?
-1

---

molecular target: PDGF-Ra (Homo sapiens, UniProt P16234); construct: host or cells: G-292 human osteosarcoma cells; test: Inhibitory activity against PDGF-Ra phosphorylation by PDGF-AA stimulation using G292; type: cell-based; conditions: > means inhibition at indicated concentration not more than 50%, < and << not less than 50%; read-out: PDGF (E) IC50
Sequence (P16234 24-1089): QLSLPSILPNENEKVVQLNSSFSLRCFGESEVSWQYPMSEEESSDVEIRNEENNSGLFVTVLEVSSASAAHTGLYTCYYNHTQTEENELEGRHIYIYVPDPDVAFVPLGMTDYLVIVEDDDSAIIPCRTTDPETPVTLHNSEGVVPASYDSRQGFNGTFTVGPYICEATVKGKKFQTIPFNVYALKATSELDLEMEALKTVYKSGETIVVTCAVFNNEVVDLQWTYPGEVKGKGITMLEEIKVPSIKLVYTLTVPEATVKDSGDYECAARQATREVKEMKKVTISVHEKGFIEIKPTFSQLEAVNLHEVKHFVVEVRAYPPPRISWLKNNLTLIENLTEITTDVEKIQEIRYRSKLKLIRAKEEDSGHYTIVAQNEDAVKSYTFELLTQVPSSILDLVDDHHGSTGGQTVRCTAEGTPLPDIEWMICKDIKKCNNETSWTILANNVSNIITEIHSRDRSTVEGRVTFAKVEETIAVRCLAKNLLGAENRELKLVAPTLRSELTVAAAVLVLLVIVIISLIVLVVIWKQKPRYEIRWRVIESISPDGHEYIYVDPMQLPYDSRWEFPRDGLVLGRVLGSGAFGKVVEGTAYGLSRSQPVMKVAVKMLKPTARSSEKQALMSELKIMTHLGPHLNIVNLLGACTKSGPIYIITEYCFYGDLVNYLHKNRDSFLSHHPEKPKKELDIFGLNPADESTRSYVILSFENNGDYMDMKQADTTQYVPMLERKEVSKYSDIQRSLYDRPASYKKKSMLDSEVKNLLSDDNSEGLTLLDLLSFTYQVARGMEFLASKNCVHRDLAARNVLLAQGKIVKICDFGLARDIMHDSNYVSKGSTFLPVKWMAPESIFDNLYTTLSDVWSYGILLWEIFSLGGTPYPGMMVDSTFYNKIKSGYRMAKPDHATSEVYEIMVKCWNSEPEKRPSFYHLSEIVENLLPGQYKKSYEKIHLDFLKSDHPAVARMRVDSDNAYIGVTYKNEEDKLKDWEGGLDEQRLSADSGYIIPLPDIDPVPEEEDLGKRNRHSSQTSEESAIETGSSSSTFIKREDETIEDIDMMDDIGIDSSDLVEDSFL
Measured IC50 of individual entries
Write down the numeric answer in nM and omit the unit.

[
  {
    "Molecule": "COc1cc2nccc(Oc3ccc(NC(=O)NC4CCN(Cc5ccccc5)C4)c(C)c3C)c2cc1OC (stereo not shown) [Example 604]",
    "Units Symbol": "nM",
    "IC50": 73
  }
]

Just so you know, measured IC50 for COc1cc2nccc(Oc3ccc(NC(=S)NC(=O)c4ccc(CCl)cc4)cc3F)c2cc1OC [Example 1000] came out at 3

---

target: c-kit (Homo sapiens, UniProt P10721); construct: MO7e (human megakaryocytic leukemia cell line) which had been arrested for 20 hr; endogenous in cells; host or cells: MO7e human megakaryocytic leukemia cell line; test: Inhibitory activity against c-kit autophosphorylation (MO7e cells, h-SCF); type: cell-based; settings: MO7e cells, h-SCF stimulation; read-out: c-kit IC50
Endpoint Name: pIC50
# pIC50 = -log10(concentration in molar units)

Please review the entries below; each comes with its answer.
[
  {
    "Molecule": "COc1cc2nccc(Oc3ccc(NC(=S)NC(=O)c4ccccc4Cl)cc3)c2cc1OC [Example 898]",
    "pIC50": 6.20
  },
  {
    "Molecule": "COc1cc2ncnc(Oc3ccc(NC(=S)NC(=O)c4cccc(Br)c4)cc3)c2cc1OC [Example 958]",
    "pIC50": 6.71
  },
  {
    "Molecule": "COc1cc2nccc(Oc3ccc(NC(=S)NC(=O)c4cccc(C)c4)c(F)c3)c2cc1OC [Example 936]",
    "pIC50": 6.37
  }
]

Continue with the next molecule.
Entry under test: COc1cc2nccc(Oc3ccc(NCCCOc4ccccc4)cc3)c2cc1OC [Example 885] . Its pIC50 was 6.38
